As shown below, each of these binders has a reported EC50 (nM), HEK-Blue IL-2 reporter cells lacking PD-1 value.
Molecular target: T1, IL-2 receptor overexpressed on HEK-Blue IL-2 reporter cells (InvivoGen) (UniProt P01589 22-272; P14784 27-551; P31785 23-369, limits assumed)
T1 sequence (looked up) 1: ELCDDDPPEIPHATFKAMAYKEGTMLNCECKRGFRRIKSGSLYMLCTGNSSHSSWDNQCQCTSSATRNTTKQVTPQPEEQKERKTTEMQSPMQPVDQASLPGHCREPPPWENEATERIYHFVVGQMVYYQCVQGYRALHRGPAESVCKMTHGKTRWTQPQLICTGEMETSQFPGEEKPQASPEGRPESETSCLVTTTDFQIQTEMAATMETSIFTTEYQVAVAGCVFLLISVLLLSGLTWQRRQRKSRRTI
T1 sequence (looked up) 2: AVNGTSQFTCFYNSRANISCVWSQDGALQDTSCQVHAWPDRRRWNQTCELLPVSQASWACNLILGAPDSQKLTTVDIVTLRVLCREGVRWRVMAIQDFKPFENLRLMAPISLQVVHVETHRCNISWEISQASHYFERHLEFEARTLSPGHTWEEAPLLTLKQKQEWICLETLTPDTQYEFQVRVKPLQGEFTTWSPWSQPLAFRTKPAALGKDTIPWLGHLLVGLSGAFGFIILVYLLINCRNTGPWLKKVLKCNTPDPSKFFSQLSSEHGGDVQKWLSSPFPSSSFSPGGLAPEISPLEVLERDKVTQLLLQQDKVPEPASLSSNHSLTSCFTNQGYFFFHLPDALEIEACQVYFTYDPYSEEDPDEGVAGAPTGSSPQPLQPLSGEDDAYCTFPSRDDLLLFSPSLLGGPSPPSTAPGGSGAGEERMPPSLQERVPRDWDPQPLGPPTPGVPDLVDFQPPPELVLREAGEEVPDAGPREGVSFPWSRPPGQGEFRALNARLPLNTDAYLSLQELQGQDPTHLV
T1 sequence (looked up) 3: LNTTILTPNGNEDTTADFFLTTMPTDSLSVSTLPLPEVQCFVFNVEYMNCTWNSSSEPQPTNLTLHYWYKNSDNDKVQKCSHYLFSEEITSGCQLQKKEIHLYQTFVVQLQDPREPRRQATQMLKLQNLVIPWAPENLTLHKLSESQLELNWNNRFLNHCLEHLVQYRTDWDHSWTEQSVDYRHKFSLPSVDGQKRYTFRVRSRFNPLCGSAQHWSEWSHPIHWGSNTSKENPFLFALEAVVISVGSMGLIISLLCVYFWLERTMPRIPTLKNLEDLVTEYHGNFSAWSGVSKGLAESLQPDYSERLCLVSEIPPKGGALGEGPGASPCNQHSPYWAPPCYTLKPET
Assay: cell-based or functional assay
Kindly provide the numeric value in nM only, without the unit symbol.

In the examples that follow, each entry is paired with its recorded EC50 (nM), HEK-Blue IL-2 reporter cells lacking PD-1.
binder | value
polypeptide comprising modified IL-2 (T3A, H16A, P65R, D84S, C125S) fused to the C-terminus of a PD-1-binding VHH (other, not shown: a dimerising Fc or GST; small tags and cut ends) APASSSTKKTQLQLEALLLDLQMILNGINNYKNPKLTRMLTFKFYMPKKATELKHLQCLEEELKRLEEVLNLAQSKNFHLRPRSLISNINVIVLELKGSETTFMCEYADETATIVEFLNRWITFSQSIISTLT | 0.9
polypeptide comprising modified IL-2 (T3A, H16A, F42R, P65R, D84S, C125S) fused to the C-terminus of a PD-1-binding VHH (other, not shown: a dimerising Fc or GST; small tags and cut ends) APASSSTKKTQLQLEALLLDLQMILNGINNYKNPKLTRMLTRKFYMPKKATELKHLQCLEEELKRLEEVLNLAQSKNFHLRPRSLISNINVIVLELKGSETTFMCEYADETATIVEFLNRWITFSQSIISTLT | 2.1
polypeptide comprising modified IL-2 (T3A, H16A, P65R, D84S, I114F, C125S) fused to the C-terminus of a PD-1-binding VHH (other, not shown: a dimerising Fc or GST; small tags and cut ends) APASSSTKKTQLQLEALLLDLQMILNGINNYKNPKLTRMLTFKFYMPKKATELKHLQCLEEELKRLEEVLNLAQSKNFHLRPRSLISNINVIVLELKGSETTFMCEYADETATFVEFLNRWITFSQSIISTLT | 1.4

Consider the additional binder presented here.
Consider the binder shown here: polypeptide comprising modified IL-2 (T3A, H16A, E61R, P65R, D84S, C125S) fused to the C-terminus of a PD-1-binding VHH (other, not shown: a dimerising Fc or GST; small tags and cut ends) APASSSTKKTQLQLEALLLDLQMILNGINNYKNPKLTRMLTFKFYMPKKATELKHLQCLERELKRLEEVLNLAQSKNFHLRPRSLISNINVIVLELKGSETTFMCEYADETATIVEFLNRWITFSQSIISTLT What is its recorded EC50 (nM), HEK-Blue IL-2 reporter cells lacking PD-1?
3.2

Entry source: patent US20230235005A1
